- system.name: HCV NS5B polymerase 1a-H77 (Hepatitis C virus genotype 1a, UniProt P27958)
- Construct: six-histidine tag; made in house; host or cells: E. coli
- Sequence (P27958 2421-2990): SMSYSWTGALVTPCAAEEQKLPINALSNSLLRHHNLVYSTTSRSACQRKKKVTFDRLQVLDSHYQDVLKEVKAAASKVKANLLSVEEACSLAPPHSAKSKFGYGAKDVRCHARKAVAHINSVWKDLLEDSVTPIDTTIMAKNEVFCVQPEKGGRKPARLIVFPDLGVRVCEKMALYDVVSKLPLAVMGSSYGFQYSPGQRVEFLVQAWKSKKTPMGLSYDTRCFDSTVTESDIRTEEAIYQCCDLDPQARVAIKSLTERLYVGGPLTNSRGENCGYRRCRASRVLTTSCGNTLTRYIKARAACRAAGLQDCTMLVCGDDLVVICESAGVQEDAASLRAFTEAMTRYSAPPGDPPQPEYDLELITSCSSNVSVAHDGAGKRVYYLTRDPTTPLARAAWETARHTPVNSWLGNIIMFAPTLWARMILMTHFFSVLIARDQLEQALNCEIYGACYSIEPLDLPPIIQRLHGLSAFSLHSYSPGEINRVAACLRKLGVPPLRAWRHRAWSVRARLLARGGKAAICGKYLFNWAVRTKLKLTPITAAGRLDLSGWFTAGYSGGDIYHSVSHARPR
- measurement.description: biochemical
- Set-up: species or system HCV genotype 1a
- measurement.setup: enzyme, strain 1a H77; read-out: HCV Polymerase Strain 1a H77 IC50
measurement.type: IC50
Field note: include the unit after the figure.

* CS(=O)(=O)N(CCN1CCOCC1)c1cc2oc(-c3ccc(F)cc3)c(-c3ncc[nH]3)c2cc1C1CC1 [Example 58] | 7.3 nM
* CS(=O)(=O)Nc1cc2oc(-c3ccc(F)cc3)c(C3=NOCN3)c2cc1C1CC1 [Example 173] | 7.1 nM
* C[S+]([O-])CCN(c1cc2oc(-c3ccc(F)cc3)c(C3=NOCCN3)c2cc1C1CC1)S(C)(=O)=O (stereo not shown) [Example 138] | 9.8 nM

# get_value(readout='IC50', item= COc1ccc(-c2nn3ccc(-c4cc(C(=O)NC5(c6ccccc6)CC5)ccc4C)cc3c2-c2ncc[nH]2)cc1 [Example 191] )
12 nM

Now try Cn1cc(-c2ncc(CN(c3ccc4c(-c5ncc[nH]5)c(-c5ccccc5)oc4c3)S(C)(=O)=O)s2)cn1 [Example 26] .
12 nM

Now try COCCN(c1cc2oc(-c3ccc(F)cc3)c(-c3ncc[nH]3)c2cc1C1CC1)S(C)(=O)=O [Example 47] .
7.9 nM

Now try CS(=O)(=O)N(CCCC(F)(F)F)c1cc2oc(-c3ccc(F)cc3)c(C3=NOCCN3)c2cc1C1CC1 [Example 117] .
4.5 nM

Now try CCOP(=O)(CCCN(c1cc2oc(-c3ccc(F)cc3)c(C3=NOCCN3)c2cc1C1CC1)S(C)(=O)=O)OCC [Example 116] .
7.5 nM

Now try CC(=O)CCCCN(c1cc2oc(-c3ccc(F)cc3)c(-c3ncc[nH]3)c2cc1C1CC1)S(C)(=O)=O [Example 77] .
5 nM

Now try CS(=O)(=O)N(CCC1CCS(=O)(=O)C1)c1cc2oc(-c3ccc(F)cc3)c(C3=NOCN3)c2cc1C1CC1 (stereo not shown) [Example 149] .
3.5 nM

----------
- System: HCV 1a-H77 transient subgenomic replicon in Huh-7 derived cell line
- measurement.description: microbe, parasite or virus in culture
- Assay type: cell-based, HCV genotype 1a
- measurement.setup: Hepatitis C virus, Huh-7; transient replicon, 5% FBS; read-out: Transient Replicon 1a H77 5% FBS EC50
Define the label as true when EC50 is strictly less than 8 nM and as false in all remaining cases.

* CS(=O)(=O)N(CCC1CCS(=O)(=O)C1)c1cc2oc(-c3ccc(F)cc3)c(C3=NOCCN3)c2cc1C1CC1 (stereo not shown) | false
* CS(=O)(=O)CCCCN(c1cc2oc(-c3ccc(F)cc3)c(C3=NOCCN3)c2cc1C1CC1)S(C)(=O)=O | true
* CS(=O)(=O)CCN(c1cc2oc(-c3ccc(F)cc3)c(C3=NOCCN3)c2cc1C1CC1)S(C)(=O)=O | true
* CS(=O)(=O)N(CCCS(N)(=O)=O)c1cc2oc(-c3ccc(F)cc3)c(-c3ncc[nH]3)c2cc1C1CC1 | false

Quick check: does CS(=O)(=O)N(CCCO)c1cc2oc(-c3ccc(F)cc3)c(C3=NOCCN3)c2cc1C1CC1 have EC50 under 8 nM?
false

The origin of these recorded values is patent US20160355530A1.
